inhibition in vivo at 0.1 mg/kg for assorted compounds
# Test system: passive cutaneous anaphylaxis (PCA) reaction
# Test details: passive cutaneous anaphylaxis (PCA) test, i.v. or oral administration
# Format: in vivo, male Charles River Wistar rats
# Setup conditions: Rattus norvegicus, iv; I.V., 0.1 mg/kg; read-out: degree (%) of protection, PCA test
Report only the number, with the unit % understood.

Some entries whose results are on file:
In [3]: df
Out[3]:
                                   compound  meas_value
0  CCOC(=O)c1nc2nc3ccccc3cc2c(=O)[nH]1 [COOC2 H5/H/H/H/H/H]          45
1  CCOC(=O)c1nc2nc3ccc(OC)cc3cc2c(=O)[nH]1 [COOC2 H5/H/H/OCH3/H/H]          68
2  CCOC(=O)c1nc2nc3cc(OCC)c(OC)cc3cc2c(=O)[nH]1 [COOC2 H5/H/H/OCH3/OC2 H5/H]          94
3  CCCCOc1cc2nc3nc(C(=O)OCC)[nH]c(=O)c3cc2cc1OCC [COOC2 H5/H/H/OC2 H5/O-(n-C4 H9)/H]          28

# lookup: O=C(O)c1cc(=O)c2c(OCC(O)COc3cccc4oc(C(=O)O)cc(=O)c34)cccc2o1 [Disodium chromoglycate, reference compound] on passive cutaneous anaphylaxis (PCA) reaction, inhibition in vivo at 0.1 mg/kg = 19

# lookup: CCOC(=O)c1nc2nc3cc(OCC)c(OCC)cc3cc2c(=O)[nH]1 [COOC2 H5/H/H/OC2 H5/OC2 H5/H] on passive cutaneous anaphylaxis (PCA) reaction, inhibition in vivo at 0.1 mg/kg = 90

Where do the numbers come from? From patent US4044134A.
